Origin of the recorded values: patent US8426447B2

Molecular target: BACE1 (Homo sapiens, UniProt P56817)
Sequence (P56817 46-501, species assumed): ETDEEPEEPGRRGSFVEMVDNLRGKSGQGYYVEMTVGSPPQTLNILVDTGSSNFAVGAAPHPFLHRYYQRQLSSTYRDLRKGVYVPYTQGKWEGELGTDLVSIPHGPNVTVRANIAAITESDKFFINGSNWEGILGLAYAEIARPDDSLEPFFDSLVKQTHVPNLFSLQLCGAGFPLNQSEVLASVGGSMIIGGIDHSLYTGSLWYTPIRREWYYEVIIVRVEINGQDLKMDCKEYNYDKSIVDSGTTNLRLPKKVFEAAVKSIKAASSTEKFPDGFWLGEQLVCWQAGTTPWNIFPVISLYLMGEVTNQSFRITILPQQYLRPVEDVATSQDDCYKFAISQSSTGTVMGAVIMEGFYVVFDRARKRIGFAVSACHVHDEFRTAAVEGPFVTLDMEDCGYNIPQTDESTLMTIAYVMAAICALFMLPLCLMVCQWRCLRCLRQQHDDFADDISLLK
Assay: In Vitro BACE Cell-based Assay (HEK cell assay): Aβ40 in conditioned medium of cells stably expressing Amyloid Precursor Protein, sandwich ELISA
Details: read-out: HEK cell assay
pIC50: −log10 of the molar value.
Readout type: pIC50

Which pIC50 is reported for this molecule? CC(C)(C)CCOc1nccc2c1[C@@]1(COC(N)=N1)c1cc(-c3cccnc3)ccc1O2 [compound 931]
< 5.30

What value of pIC50 has been recorded for this entry: CC(C)(C)COc1ccc2c(c1)[C@]1(COC(N)=N1)c1cc(C(=O)NC3CCC3)ccc1O2 [compound 702]
6.00 to 7.00

Item CC(C)(C)C#Cc1ccc2c(c1)[C@@]1(COC(N)=N1)c1cc(C#CC(C)(C)C)cnc1O2 [compound 1000] has what recorded pIC50?
6.00 to 7.00

I am curious: what pIC50 value has been reported for Cc1csc(-c2ccc3c(c2)[C@]2(COC(N)=N2)c2cc(-c4cccnc4)ccc2O3)c1 [compound 726] ?
6.00 to 7.00

Fill in: pIC50 of COC(C)(C)C#Cc1cnc2c(c1)[C@@]1(COC(N)=N1)c1cc(-c3ccncc3)ccc1O2 [compound 692] is ___
< 5.30

Name the reported pIC50 value associated with the molecule CC(C)(C)COc1ccc2c(c1)[C@@]1(COC(N)=N1)c1cc(-c3cccnc3F)cnc1O2 [compound 952]
> 7.00

pIC50 lookup needed for COC(C)(C)C#Cc1ccc2c(c1)[C@@]1(COC(N)=N1)c1cc(C#CC(C)(C)OC)cnc1O2 [compound 934] , thanks.
> 7.00

Look up pIC50: CC(=O)c1ccccc1-c1ccc2c(c1)[C@@]1(COC(N)=N1)c1cc(OCC(C)(C)C)ccc1O2 [compound 974]
5.30 to 6.00

What value of pIC50 has been recorded for this entry: CC1(COc2ccc3c(c2)[C@@]2(COC(N)=N2)c2cc(-c4ccccc4)cnc2O3)COC1 [compound 966]
> 7.00

Consider the molecule CC(C)(C)COc1ccc2c(c1)[C@@]1(COC(N)=N1)c1cc(-c3csc(C(F)F)c3)ccc1O2 [compound 783] and give its measured pIC50.
5.30 to 6.00

Name the reported pIC50 value associated with the molecule CC1(C)C=C(c2ccc3c(c2)[C@]2(COC(N)=N2)c2cc(-c4cncnc4)ccc2O3)CCO1 [Example 689]
> 7.00
